- Test system: MOLP-8 human multiple myeloma cell line
- ASSAY_PROCEDURE: MOLP8 Caspase-Glo 3/7 apoptosis induction assay
- Format: cell-based
- SETTINGS: MOLP-8 cells, 2 hours incubation at 37° C.; averaged values over all runs on all batches

MOLECULE | TEST_TARGET | AC50
Cc1nn2c3c1-c1c(Cl)ccc4c1c(C)c(C(=O)O)n4CCCOc1cc(cc4cc(F)ccc14)CCc1cc(nn1C)CCC3OCC2 (centres unmarked) [Compound 29] | MOLP-8 human multiple myeloma cell line | 146 nM
COCC1OCc2cc(n(C)n2)CCc2cc(c3ccc(F)cc3c2)OCCCn2c(C(=O)O)c(C)c3c(c(Cl)ccc32)-c2c1nn(C)c2C (single isomer, unassigned) [Compound 15] | MOLP-8 human multiple myeloma cell line | 66.1 nM
COc1ccc(COC2CCc3cc(n(C)n3)CCc3cc(c4ccc(F)cc4c3)OCCCn3c(C(=O)O)c(C)c4c(c(Cl)ccc43)-c3c2nn(C)c3C)cc1 (single isomer, unassigned) [Compound 23] | MOLP-8 human multiple myeloma cell line | 169 nM
Cc1nn2c3c1-c1c(Cl)ccc4c1c(C)c(C(=O)O)n4CCCOc1cc(cc4cc(F)ccc14)CCc1cc(nn1C)CCC3OCC2 (centres unmarked) [Compound 28] | MOLP-8 human multiple myeloma cell line | > 30 nM
C=CC1OCc2cc(n(C)n2)CCc2cc(c3ccc(F)cc3c2)OCCCn2c(C(=O)O)c(C)c3c(c(Cl)ccc32)-c2c1nn(C)c2C (single isomer, unassigned) [Compound 2] | MOLP-8 human multiple myeloma cell line | 19.5 nM
